Target: panel of 255 wild-type kinases (Homo sapiens, UniProt Q05397)
Sequence (Q05397 whole entry): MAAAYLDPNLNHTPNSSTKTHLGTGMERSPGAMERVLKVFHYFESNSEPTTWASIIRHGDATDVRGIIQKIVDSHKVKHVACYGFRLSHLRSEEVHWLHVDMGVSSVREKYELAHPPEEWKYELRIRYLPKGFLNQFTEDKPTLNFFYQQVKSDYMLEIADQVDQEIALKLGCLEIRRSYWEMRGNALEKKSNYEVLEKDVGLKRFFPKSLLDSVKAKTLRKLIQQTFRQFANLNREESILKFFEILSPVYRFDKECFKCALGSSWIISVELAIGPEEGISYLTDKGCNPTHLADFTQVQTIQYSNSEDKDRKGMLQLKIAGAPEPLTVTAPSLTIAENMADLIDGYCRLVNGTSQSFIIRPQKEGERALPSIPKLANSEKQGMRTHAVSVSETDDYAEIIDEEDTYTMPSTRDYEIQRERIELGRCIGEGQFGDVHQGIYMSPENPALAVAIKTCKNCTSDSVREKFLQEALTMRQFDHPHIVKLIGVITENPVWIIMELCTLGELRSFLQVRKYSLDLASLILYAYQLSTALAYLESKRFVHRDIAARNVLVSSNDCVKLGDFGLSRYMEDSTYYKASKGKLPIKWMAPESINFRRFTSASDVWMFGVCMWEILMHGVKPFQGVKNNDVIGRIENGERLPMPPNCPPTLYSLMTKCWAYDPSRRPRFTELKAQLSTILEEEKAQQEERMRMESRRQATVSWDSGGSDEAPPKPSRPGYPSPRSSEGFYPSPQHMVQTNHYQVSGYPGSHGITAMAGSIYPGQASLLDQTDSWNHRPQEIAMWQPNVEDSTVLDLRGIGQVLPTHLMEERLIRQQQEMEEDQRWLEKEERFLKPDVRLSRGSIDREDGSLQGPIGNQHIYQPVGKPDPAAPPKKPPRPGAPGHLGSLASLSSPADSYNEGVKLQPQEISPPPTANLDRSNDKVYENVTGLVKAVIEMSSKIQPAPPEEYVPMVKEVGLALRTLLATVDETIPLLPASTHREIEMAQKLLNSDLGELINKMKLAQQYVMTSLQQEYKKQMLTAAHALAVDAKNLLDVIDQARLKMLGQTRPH
Assay: Kinase panel profiling at 1 µmol/L (MSA or IMAP), percentage inhibition
Format: biochemical
Conditions: kinase FAK; 1 µmol/L single concentration; read-out: %-inhibition at 1 µmol/L, FAK

Cpd Smiles: CCN1C(=O)N(c2c(F)c(OC)cc(OC)c2F)Cc2cnc3[nH]c(CN4CCOCC4)cc3c21
Measurement Units: %
inhibition at 1 µM: 5.32
//
Cpd Smiles: Cc1cc(Nc2ncnc3ccc(NC4=NC(C)(C)CO4)cc23)ccc1Oc1ccn2ncnc2c1
Measurement Units: %
inhibition at 1 µM: -1.17
//
Cpd Smiles: CCn1c(=O)c(-c2cc(NC(=O)Nc3ccccc3)c(F)cc2Br)cc2cnc(NC)cc21
Measurement Units: %
inhibition at 1 µM: 0.833
//
Cpd Smiles: Cn1cnc2c(F)c(Nc3ccc(Br)cc3F)c(C(=O)NOCCO)cc21
Measurement Units: %
inhibition at 1 µM: -1.33
//
Cpd Smiles: Cc1nc(NC(=O)N2CCC[C@H]2C(N)=O)sc1-c1ccnc(C(C)(C)C(F)(F)F)c1
Measurement Units: %
inhibition at 1 µM: 3.69
//
Cpd Smiles: O=C(Nc1cnn2ccc(N3CCC[C@@H]3c3cc(F)ccc3F)nc12)N1CC[C@H](O)C1
Measurement Units: %
inhibition at 1 µM: 4
//
Cpd Smiles: C[C@H](Nc1ncnc2nc[nH]c12)c1cc2cccc(Cl)c2c(=O)n1-c1ccccc1
Measurement Units: %
inhibition at 1 µM: 4
//
Cpd Smiles: Cn1cnc2c(F)c(Nc3ccc(Br)cc3Cl)c(C(=O)NOCCO)cc21
Measurement Units: %
inhibition at 1 µM: -1.9
//
Cpd Smiles: CO[C@]1(C(=O)N[C@@H](C)c2ccc(-n3cc(F)cn3)nc2)CC[C@H](c2nc(C)cc(Nc3cc(C)[nH]n3)n2)CC1
Measurement Units: %
inhibition at 1 µM: 14
//
Cpd Smiles: COC(=O)N[C@@H](C)CNc1nccc(-c2cn(C(C)C)nc2-c2cc(Cl)cc(NS(C)(=O)=O)c2F)n1
Measurement Units: %
inhibition at 1 µM: -3
//
Cpd Smiles: Cn1cc(-c2cc3c(N4CCN(c5ncc([C@@](C)(N)c6ccc(F)cc6)cn5)CC4)ncnn3c2)cn1
Measurement Units: %
inhibition at 1 µM: -2.5
//
Cpd Smiles: CCN1CCN(c2ccc(Nc3cc(N(C)C(=O)Nc4c(Cl)c(OC)cc(OC)c4Cl)ncn3)cc2)CC1
Measurement Units: %
inhibition at 1 µM: -4.48
//
Cpd Smiles: COc1cc2ncnc(Nc3ccc(F)c(Cl)c3)c2cc1NC(=O)/C=C/CN1CCCCC1
Measurement Units: %
inhibition at 1 µM: -0.575
//
Cpd Smiles: FC(F)(F)c1ccc(CNc2ccc(Cc3c[nH]c4ncc(Cl)cc34)cn2)cn1
Measurement Units: %
inhibition at 1 µM: 30
//
Cpd Smiles: COc1ccc(CN2C3CC2CN(c2ccc(-c4cc(OCC(C)(C)O)cn5ncc(C#N)c45)cn2)C3)cn1
Measurement Units: %
inhibition at 1 µM: 10
//
Cpd Smiles: C=CC(=O)N1CCC([C@@H]2CCNc3c(C(N)=O)c(-c4ccc(Oc5ccccc5)cc4)nn32)CC1
Measurement Units: %
inhibition at 1 µM: 13
